Where do the numbers come from? From patent US20230110188A1.

Target: T1, Human MuSK (R&D Systems, cat. 10189-MK, histidine tag) (human, UniProt O15146 24-495)
T1 construct: Bought protein; also called human monomeric MuSK-6xhis; not shown: histidine tag (6xhis)
T1 sequence: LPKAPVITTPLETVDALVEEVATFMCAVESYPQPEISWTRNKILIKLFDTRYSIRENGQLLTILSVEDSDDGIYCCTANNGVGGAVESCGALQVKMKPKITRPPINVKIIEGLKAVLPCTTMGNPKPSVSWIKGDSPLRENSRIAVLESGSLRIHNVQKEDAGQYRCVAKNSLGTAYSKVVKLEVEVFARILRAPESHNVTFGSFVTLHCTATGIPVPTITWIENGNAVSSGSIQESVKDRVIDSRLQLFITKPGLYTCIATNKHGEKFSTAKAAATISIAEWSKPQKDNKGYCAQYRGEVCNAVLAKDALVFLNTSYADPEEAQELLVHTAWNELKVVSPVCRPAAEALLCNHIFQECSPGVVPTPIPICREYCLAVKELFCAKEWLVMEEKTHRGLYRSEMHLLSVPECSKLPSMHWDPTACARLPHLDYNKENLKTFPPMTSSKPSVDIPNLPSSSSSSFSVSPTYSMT
Assay: SPR (Biacore), antibody captured on anti-hFc chip; 10 nM; dissociation pH 7.4
measurement_label: koff (s⁻¹)
# unit: s⁻¹ | format: bare number

IN: Param item = 3F6c (antibody, human IgG1, kappa, L234A L235A, V domains shown) VH: EVQLVESGGGLVKPGGSLRLSCAASGFTFSSYTMDWVRQAPGKGLEWVSSIGSNGDYIYYADSVRGRFTISRDNAKNSLYLQMNSLRAEDTAVYYCARGQLAVAGTHFDYWGQGTLVTVSS VL: DIQMTQSPSSLSASVGDRVTITCRASQKVNKYVNWYQQKPGKAPKLLIYAASTLQSGVPSRFSGSGSGTDFTLTISSLQPEDFATYYCQQSYSPLSTFGQGTKLEIKR ; retrieve measured koff.
OUT: 6e-05

---
IN: Param item = 4D3 (antibody, human IgG1, kappa, L234A L235A, V domains shown) VH: EVQLVESGGGLVKPGGSLRLSCAASGFTFSSYTMTWVRQAPGKGLEWVSSISSGGHYIYYTDSLKGRFTISRDNAKNSLYLQMNSLRAEDTAVYYCARERLLRLGVGFDFWGQGTLVTVSS VL: DIQMTQSPSSLSASVGDRVTITCRASQSISGYLNWYQQKPGKAPKLLIYAASTLQSGVPSRFSGSGSGTDFTLTISSLQPEDFATYYCQQSYSALYTFGQGTKLEIKR ; retrieve measured koff.
OUT: 0.00013

IN: Another: 3D9b (antibody, human IgG1, kappa, L234A L235A, V domains shown) VH: EVQLVESGGGLVKPGGSLRLSCAASGFTFSTYTMHWVRQAPGKGLEWVSSISSRSAYKYYADSVKGRFTISRDNAKNSLYLQMNSLRAEDTAVYYCARDFFQLGPPRFDSWGQGTLVTVSS VL: DIQMTQSPSSLSASVGDRVTITCRASQRISSFLNWYQQKPGKAPKLLIYGASNLQSGVPSRFSGSGSGTDFTLTISSLQPEDFATYYCQQSYSPSYTFGQGTKLEIKR
OUT: 8e-05

IN: Another: 3D10a (antibody, human IgG1, kappa, L234A L235A, V domains shown) VH: EVQLVESGGGLVKPGGSLRLSCAASGFTFSASTMAWVRQAPGKGLEWVSSVSGDSHHIYYADSLKGRFTISRDNAKNSLYLQMNSLRAEDTAVYYCARERLLRLGVGFDSWGQGTLVTVSS VL: DIQMTQSPSSLSASVGDRVTITCRASQRISGFVNWYQQKPGKAPKLLIYAASTLQSGVPSRFSGSGSGTDFTLTISSLQPEDFATYYCQQSYSPLYTFGQGTKLEIKR
OUT: 0.00014
